Reported IC50 is given for each of the following compounds.
# assayed-target: GluR5 receptor (Homo sapiens)
# Construct: expressed in transfected cells; host or cells: HEK293
# measurement-protocol: Functional GluR5 assay: inhibition of domoate-induced increase in intracellular free calcium (FLIPR, Fluo-4)
# Format: cell-based
# assay-context: HEK293 cells stably expressing un-edited GluR5; inhibition of 2 μM domoate-induced Cai elevation
metric: IC50 (µM)

compound=N#Cc1cc2[nH]c(=O)c(=O)[nH]c2cc1[N+](=O)[O-] metric=IC50 experimental_value=3.3
compound=O=C(Nc1cc(NC(=O)c2ccccc2)c(C(=O)O)cc1C(=O)O)c1ccccc1 metric=IC50 experimental_value=1.9
compound="CC(C)(C)c1onc(O)c1CC(N)C(=O)O (stereo not drawn)" metric=IC50 experimental_value=0.7

###

Documented IC50 across a set of molecules
# assayed-target: GluR6 receptors (Homo sapiens)
# Sequence (Q13002 32-908): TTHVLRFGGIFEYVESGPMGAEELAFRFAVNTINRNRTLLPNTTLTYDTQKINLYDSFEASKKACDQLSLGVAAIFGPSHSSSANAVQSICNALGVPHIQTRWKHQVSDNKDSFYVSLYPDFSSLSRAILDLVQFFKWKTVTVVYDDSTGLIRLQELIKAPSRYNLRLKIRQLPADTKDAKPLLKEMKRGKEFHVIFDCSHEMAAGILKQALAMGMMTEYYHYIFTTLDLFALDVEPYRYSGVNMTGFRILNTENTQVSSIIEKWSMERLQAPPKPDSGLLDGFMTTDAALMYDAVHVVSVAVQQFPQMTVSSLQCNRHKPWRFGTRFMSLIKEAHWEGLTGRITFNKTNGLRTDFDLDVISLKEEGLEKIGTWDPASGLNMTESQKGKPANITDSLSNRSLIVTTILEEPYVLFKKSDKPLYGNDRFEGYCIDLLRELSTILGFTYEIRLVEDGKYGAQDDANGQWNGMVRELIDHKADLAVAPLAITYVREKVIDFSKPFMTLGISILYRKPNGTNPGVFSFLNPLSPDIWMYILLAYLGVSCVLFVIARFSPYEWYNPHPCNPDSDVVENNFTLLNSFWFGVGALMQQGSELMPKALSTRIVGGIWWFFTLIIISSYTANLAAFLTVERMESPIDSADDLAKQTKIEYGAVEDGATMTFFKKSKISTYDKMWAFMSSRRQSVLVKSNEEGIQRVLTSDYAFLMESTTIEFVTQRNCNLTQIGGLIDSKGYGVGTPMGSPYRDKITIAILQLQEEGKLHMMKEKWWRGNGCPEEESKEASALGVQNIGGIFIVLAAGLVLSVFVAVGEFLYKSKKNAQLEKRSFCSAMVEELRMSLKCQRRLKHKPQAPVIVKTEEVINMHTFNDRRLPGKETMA
# measurement-protocol: Functional GluR6 assay: inhibition of domoate-induced increase in intracellular free calcium (FLIPR, Fluo-4)
# assay-context: HEK293 cells stably expressing un-edited GluR6; inhibition of 2 μM domoate-induced Cai elevation
metric: IC50

molecule=O=C(Nc1cc(NC(=O)c2ccccc2)c(C(=O)O)cc1C(=O)O)c1ccccc1 metric=IC50 experimental_value="> 30 µM"
molecule="CC(C)(C)c1onc(O)c1CC(N)C(=O)O (stereo not drawn)" metric=IC50 experimental_value="> 30 µM"
molecule=N#Cc1cc2[nH]c(=O)c(=O)[nH]c2cc1[N+](=O)[O-] metric=IC50 experimental_value="7.6 µM"

###

# assayed-target: GluR5 receptor (Homo sapiens, UniProt P39086)
# Construct: expressed in transfected cells; host or cells: HEK293
# Sequence (P39086 31-918): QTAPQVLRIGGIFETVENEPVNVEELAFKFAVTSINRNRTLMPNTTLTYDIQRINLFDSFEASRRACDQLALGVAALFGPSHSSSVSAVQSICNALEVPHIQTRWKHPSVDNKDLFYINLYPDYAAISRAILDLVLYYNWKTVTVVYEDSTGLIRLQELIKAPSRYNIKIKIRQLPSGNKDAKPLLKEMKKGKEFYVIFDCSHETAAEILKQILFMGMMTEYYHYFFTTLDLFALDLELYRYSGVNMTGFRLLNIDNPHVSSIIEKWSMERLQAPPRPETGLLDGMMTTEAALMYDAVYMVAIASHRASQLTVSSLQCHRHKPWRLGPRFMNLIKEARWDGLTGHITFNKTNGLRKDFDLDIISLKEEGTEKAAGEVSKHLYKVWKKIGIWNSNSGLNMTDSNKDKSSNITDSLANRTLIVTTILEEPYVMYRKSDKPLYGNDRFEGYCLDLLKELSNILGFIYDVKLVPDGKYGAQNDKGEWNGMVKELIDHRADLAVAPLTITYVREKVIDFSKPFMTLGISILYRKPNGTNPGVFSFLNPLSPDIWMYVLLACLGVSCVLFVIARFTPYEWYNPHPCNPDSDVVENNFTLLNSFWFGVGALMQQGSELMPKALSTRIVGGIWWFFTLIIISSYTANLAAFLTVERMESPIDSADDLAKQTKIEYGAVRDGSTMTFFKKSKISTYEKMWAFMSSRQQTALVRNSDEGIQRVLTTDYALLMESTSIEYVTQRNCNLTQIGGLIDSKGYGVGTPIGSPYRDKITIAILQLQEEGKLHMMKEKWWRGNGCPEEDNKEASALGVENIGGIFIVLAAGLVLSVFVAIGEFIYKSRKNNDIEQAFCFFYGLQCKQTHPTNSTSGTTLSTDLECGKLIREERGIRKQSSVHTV
# measurement-protocol: GluR5 binding assay: displacement of 3H-ATPA from membranes of HEK293 cells expressing GluR5
# assay-context: inhibition of specific binding of 3 nM 3H-ATPA; HEK293 GluR5 cell membranes, 60 minutes at 2° C.; read-out: GluR5 Binding IC50
pIC50: −log10 of the molar value.
metric: pIC50

molecule="O=C(Nc1cc(NC(=O)c2ccccc2)c(C(=O)O)cc1C(=O)O)c1ccccc1 [Compound A, 5-carboxyl-2,4-di-benzamido-benzoic acid]" assayed_target="GluR5 receptor (Homo sapiens, UniProt P39086)" sign=< experimental_value=5.00
molecule="N#Cc1cc2[nH]c(=O)c(=O)[nH]c2cc1[N+](=O)[O-] [CNQX]" assayed_target="GluR5 receptor (Homo sapiens, UniProt P39086)" sign== experimental_value=6.14

###

# assayed-target: GluR5 receptor (Homo sapiens)
# Construct: expressed in transfected cells; host or cells: HEK293
# measurement-protocol: GluR5 binding assay: displacement of 3H-ATPA from membranes of HEK293 cells expressing GluR5
pIC50: −log10 of the molar value.
metric: pIC50

compound="CC(C)(C)c1onc(O)c1CC(N)C(=O)O (stereo not shown) [ATPA]" assayed_target="GluR5 receptor (Homo sapiens)" experimental_value=7.62
